Tested on: IL-6
Experiment: IL-6 production by murine splenocytes
Format: cell-based, mouse
Conditions: 10 μM; Con A

molecule | IL-6 production in T cells
COc1ccc(C2=Cc3ccc(O)cc3OC2)cc1OC [Cpd. 18, 7-Hydroxy-3′,4′-dimethoxyisoflav-3-ene] | reduced
COc1cccc(C2=Cc3ccc(O)cc3OC2)c1 [Cpd. 16, 7-Hydroxy-3′-methoxyisoflav-3-ene] | reduced
COc1ccc(C2=Cc3ccc(O)c(C)c3OC2)cc1OC | reduced

###

Documented melting point across a set of molecules
measured.endpoint: melting point

molecule | measured.endpoint | result
CC(=O)Oc1ccc(C2COc3cc(OC(C)=O)cc(C)c3C2=O)cc1 (stereo not shown) | melting point | 143 to 145 °C
CC(=O)Oc1ccc(-c2coc3cc(OC(C)=O)cc(C)c3c2=O)cc1 | melting point | 195 to 197 °C
Cc1c(O)ccc2c1OCC(c1ccc(O)cc1)=C2 [Cpd. 13, 4′,7-Dihydroxy-8-methylisoflav-3-ene] | melting point | 190 to 193 °C
Cc1c(O)ccc2c1OCC(c1cccc(O)c1)=C2 [Cpd. 14, 3′,7-Dihydroxy-8-methylisoflav-3-ene] | melting point | 130 °C

###

System: red blood cells
Assay: Peroxyl radical (AAPH)-induced red blood cell lysis
Type: cell-based
Settings: 10 μM; AAPH-induced RBC lysis; vehicle 40.0
measured.endpoint: Time taken to reach half-lysis (min)

compound | result.units | numeric.result
COc1ccc(C2=Cc3ccc(O)c(C)c3OC2)cc1OC [Cpd. 19] | min | 111.6
COc1cccc(C2=Cc3ccc(O)cc3OC2)c1 [Cpd. 16, 7-Hydroxy-3′-methoxyisoflav-3-ene] | min | 164.3
COc1ccc(C2=Cc3ccc(O)cc3OC2)cc1OC [Cpd. 18, 7-Hydroxy-3′,4′-dimethoxyisoflav-3-ene] | min | 107.7
Oc1ccc2c(c1)OCC(c1ccc(Br)cc1)=C2 [Cpd. 21, 4′-Bromo-7-hydroxyisoflav-3-ene] | min | 140.8
Cc1c(O)ccc2c1OCC(c1cccc(O)c1)=C2 [Cpd. 14, 3′,7-Dihydroxy-8-methylisoflav-3-ene] | min | 134.7
Oc1ccc(C2=Cc3ccc(O)c(Br)c3OC2)cc1 [Cpd. 20, 4′,7-Dihydroxy-8-bromoisoflav-3-ene] | min | 122.0
